Data provenance is paper PMC6796888.

# Tested on: S. pneumoniae MTCC 655
# Protocol Text: In vitro screening, % growth inhibition at 250 μg/mL
# Format: cell-based, Streptococcus pneumoniae
# Particulars: Streptococcus pneumoniae, MTCC655, 24 h, read-out: % inhibition at 250 μg/mL
Experimental Readout: inhibition at 250 µg/mL (%)
Give bare numbers, in %.

[
  {
    "Compound": "CNC1=C([N+](=O)[O-])C2(C(=O)Nc3ccc([N+](=O)[O-])cc32)C2=C(CC(C)(C)CC2=O)O1 (centres unmarked)",
    "Assay System": "S. pneumoniae MTCC 655",
    "Experimental Readout": "inhibition at 250 µg/mL",
    "Data Value": 23.2
  }
]

Items follow; give inhibition at 250 µg/mL for each.
1. CNC1=C([N+](=O)[O-])C2(C(=O)Nc3ccccc32)C2=C(O1)C(=O)c1ccccc1C2=O (centres unmarked)
2. CNC1=C([N+](=O)[O-])C2(C(=O)Nc3ccc(Cl)cc32)c2c(c3ccccc3oc2=O)O1 (centres unmarked)
3. CNC1=C([N+](=O)[O-])C2(C(=O)Nc3ccc(Br)cc32)c2c(c3ccccc3oc2=O)O1 (centres unmarked)
4. CNC1=C([N+](=O)[O-])C2(C(=O)Nc3ccc(Cl)cc32)C2=C(CC(C)(C)CC2=O)O1 (centres unmarked)
5. CNC1=C([N+](=O)[O-])C2(C(=O)Nc3ccccc32)C2=C(CC(C)(C)CC2=O)O1 (centres unmarked)

Reply:
1. 100
2. 27.8
3. 19.7
4. 21.3
5. 29.7

Items follow; give inhibition at 250 µg/mL for each.
1. CNC1=C([N+](=O)[O-])C2(C(=O)Nc3ccc(Br)cc32)C2=C(CC(C)(C)CC2=O)O1 (centres unmarked)
2. CNC1=C([N+](=O)[O-])C2(C(=O)Nc3ccccc32)c2c(c3ccccc3oc2=O)O1 (centres unmarked)

Reply:
21.5
1.96
